Cited source: patent US20240327522A1

Target: recombinant human αvβ8 protein (PARS-17102) (human)
Sequence (alpha, as listed by the source limits assumed, form in doubt, chain 1 of 2): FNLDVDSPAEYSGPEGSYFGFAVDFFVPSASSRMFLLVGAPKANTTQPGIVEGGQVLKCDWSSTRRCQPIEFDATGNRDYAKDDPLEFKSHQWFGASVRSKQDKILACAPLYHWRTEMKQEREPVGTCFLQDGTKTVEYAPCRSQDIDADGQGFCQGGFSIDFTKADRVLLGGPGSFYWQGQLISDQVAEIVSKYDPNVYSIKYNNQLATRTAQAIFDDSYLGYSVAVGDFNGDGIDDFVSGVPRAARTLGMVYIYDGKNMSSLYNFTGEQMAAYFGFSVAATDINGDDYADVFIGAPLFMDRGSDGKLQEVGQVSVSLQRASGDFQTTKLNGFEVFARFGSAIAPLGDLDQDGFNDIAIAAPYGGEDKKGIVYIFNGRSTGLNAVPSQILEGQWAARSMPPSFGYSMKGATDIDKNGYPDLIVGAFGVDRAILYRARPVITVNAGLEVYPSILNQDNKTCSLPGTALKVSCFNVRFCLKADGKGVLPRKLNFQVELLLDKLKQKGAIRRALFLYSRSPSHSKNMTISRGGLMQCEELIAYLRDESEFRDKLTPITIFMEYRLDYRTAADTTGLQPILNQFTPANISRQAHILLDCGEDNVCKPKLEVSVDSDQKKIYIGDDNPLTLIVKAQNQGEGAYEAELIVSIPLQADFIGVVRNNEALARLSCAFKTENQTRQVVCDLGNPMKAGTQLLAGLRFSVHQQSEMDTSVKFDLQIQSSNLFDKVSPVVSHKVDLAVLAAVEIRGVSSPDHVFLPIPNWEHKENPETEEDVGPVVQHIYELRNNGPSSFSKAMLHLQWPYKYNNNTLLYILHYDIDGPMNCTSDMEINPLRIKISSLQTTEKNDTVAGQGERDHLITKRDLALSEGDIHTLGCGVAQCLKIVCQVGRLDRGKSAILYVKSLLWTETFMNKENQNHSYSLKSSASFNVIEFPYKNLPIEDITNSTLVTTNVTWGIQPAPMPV
Sequence (beta, as listed by the source limits assumed, form in doubt, chain 2 of 2): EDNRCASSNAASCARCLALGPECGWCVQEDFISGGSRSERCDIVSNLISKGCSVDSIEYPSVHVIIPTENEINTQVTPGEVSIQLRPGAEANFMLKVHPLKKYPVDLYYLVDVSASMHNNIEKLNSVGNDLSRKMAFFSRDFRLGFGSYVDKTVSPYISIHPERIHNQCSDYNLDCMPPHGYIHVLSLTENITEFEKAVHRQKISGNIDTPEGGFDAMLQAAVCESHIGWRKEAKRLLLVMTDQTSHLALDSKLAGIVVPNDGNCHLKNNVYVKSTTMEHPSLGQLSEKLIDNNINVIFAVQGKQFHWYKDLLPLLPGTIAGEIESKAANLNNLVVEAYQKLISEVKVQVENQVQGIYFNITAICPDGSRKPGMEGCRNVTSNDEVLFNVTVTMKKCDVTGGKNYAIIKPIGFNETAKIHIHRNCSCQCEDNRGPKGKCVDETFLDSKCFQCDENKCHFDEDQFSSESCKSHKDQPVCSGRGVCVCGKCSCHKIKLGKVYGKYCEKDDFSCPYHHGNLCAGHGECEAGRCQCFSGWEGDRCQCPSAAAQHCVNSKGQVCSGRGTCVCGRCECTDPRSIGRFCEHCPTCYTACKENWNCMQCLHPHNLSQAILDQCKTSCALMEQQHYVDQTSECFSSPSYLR
Experiment: SPR, Biacore T200, anti-murine Fc capture (murine Fc format), human αvβ8 analyte 0-50 nM, 37 C, 1:1 model (FIG. 10)
Endpoint Name: pKd
Give bare numbers, as −log10 of the molar value.

Substance	pKd
ADWA11 mIgG2a.LALAPG (antibody)	9.35

(Q) I'm curious: which pKd was measured for C6D4 mIgG2a.LALAPG (antibody) tested on recombinant human αvβ8 protein (PARS-17102) (human)?
(A) 8.98

====

Biological target: recombinant human αvβ8 protein (PARS-17102) (human)
Assay: SPR, Biacore kinetic screen at 37 °C, 1:1 binding fit; antibody as ligand, hu.aVb8-17102 as sample; in the presence of divalent cations according to
Endpoint Name: Kd (nM)
Numbers only, in nM.

(Q) # get_value(readout='Kd', item= C6D4 mIgG2a.LALAPG (antibody) )
(A) 3.8
